- SYSTEM: R120E hDAAO variant (Homo sapiens, UniProt P14920, R120E)
- Construct: His-tag (N); made in house; host or cells: E. coli BL21 (DE3) Star
- Sequence (P14920 whole entry R120E): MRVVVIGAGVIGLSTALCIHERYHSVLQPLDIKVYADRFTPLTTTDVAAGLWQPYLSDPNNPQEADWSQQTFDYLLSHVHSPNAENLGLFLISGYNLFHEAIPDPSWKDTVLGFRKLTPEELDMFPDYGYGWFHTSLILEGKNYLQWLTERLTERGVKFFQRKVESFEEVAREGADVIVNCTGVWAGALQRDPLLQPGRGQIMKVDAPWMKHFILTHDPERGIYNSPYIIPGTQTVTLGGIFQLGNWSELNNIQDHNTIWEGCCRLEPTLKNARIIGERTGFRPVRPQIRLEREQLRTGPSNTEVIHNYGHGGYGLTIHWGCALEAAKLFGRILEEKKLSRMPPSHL
- PROCEDURE_TEXT: FAD and ligand binding by quenching of protein fluorescence, R120E hDAAO
- CONDITION_CONTEXT: apoprotein, no benzoate; read-out: FAD Kd, free form, first saturation phase
MEASURED_METRIC: pKd
Scale explanation: pKd corresponds to minus log10 of a concentration expressed in moles per litre.

Quick one: pKd for Cc1cc2nc3c(=O)[nH]c(=O)nc-3n(C[C@H](O)[C@H](O)[C@H](O)COP(=O)(O)OP(=O)(O)OC[C@H]3O[C@@H](n4cnc5c(N)ncnc54)[C@H](O)[C@@H]3O)c2cc1C ? 7.30

* * *

- SYSTEM: R120E hDAAO variant (Homo sapiens, UniProt P14920, R120E)
- Construct: His-tag (N); made in house; host or cells: E. coli BL21 (DE3) Star
- PROCEDURE_TEXT: FAD and ligand binding by quenching of protein fluorescence, R120E hDAAO
- CONDITION_CONTEXT: read-out: Benzoate Kd, second saturation phase
MEASURED_METRIC: Kd (mM)
Supply the numeric figure in mM, leaving out any unit text.

Fill in: Kd of O=C(O)c1ccccc1 [Benzoate, benzoate] is ___ 7.98

* * *

- SYSTEM: R120E hDAAO variant (Homo sapiens, UniProt P14920, R120E)
- Construct: His-tag (N); made in house; host or cells: E. coli BL21 (DE3) Star
- PROCEDURE_TEXT: FAD and ligand binding by quenching of protein fluorescence, R120E hDAAO
- CONDITION_CONTEXT: read-out: Benzoate Kd, first saturation phase
MEASURED_METRIC: Kd (µM)
Number in µM, nothing else.

State the recorded Kd for this entry: O=C(O)c1ccccc1 [Benzoate, benzoate] 0.16

* * *

- SYSTEM: R120L hDAAO variant (Homo sapiens, UniProt P14920, R120L)
- Construct: His-tag (N); made in house; host or cells: E. coli BL21 (DE3) Star
- Sequence (P14920 whole entry R120L): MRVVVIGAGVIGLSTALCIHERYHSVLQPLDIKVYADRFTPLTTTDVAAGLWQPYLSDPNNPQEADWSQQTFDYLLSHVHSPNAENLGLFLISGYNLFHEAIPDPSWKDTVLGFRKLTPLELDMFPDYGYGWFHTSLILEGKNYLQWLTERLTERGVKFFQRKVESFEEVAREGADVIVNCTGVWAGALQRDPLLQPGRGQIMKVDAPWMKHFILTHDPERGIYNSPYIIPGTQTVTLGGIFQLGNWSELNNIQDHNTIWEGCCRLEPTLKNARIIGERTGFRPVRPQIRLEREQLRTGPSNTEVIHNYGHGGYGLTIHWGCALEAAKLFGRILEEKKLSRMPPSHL
- PROCEDURE_TEXT: FAD and ligand binding by quenching of protein fluorescence, R120L hDAAO
- CONDITION_CONTEXT: in presence of 70 μM benzoate; read-out: FAD Kd, benzoate complex, second saturation phase
- Protocol: Protein fluorescence spectra were recorded between 300 and 400 nm, with excitation at 280 nm using a Jasco FP-750 instrument (excitation slit of 10 nm; emission slit of 5 nm) in 10 mM potassium phosphate, pH 8.0, 1% (v/v) glycerol, 5 mM 2-mercaptoethanol, […]
pKd: −log10 of the molar value.
MEASURED_METRIC: pKd

Reported pKd for R120L hDAAO variant (Homo sapiens, UniProt P14920, R120L), given Cc1cc2nc3c(=O)[nH]c(=O)nc-3n(C[C@H](O)[C@H](O)[C@H](O)COP(=O)(O)OP(=O)(O)OC[C@H]3O[C@@H](n4cnc5c(N)ncnc54)[C@H](O)[C@@H]3O)c2cc1C ? ≤ 4.70

* * *

- SYSTEM: R120E hDAAO variant (Homo sapiens, UniProt P14920, R120E)
- Construct: His-tag (N); made in house; host or cells: E. coli BL21 (DE3) Star
- PROCEDURE_TEXT: FAD and ligand binding by quenching of protein fluorescence, R120E hDAAO
- CONDITION_CONTEXT: in presence of 70 μM benzoate; read-out: FAD Kd, benzoate complex, second saturation phase
MEASURED_METRIC: Kd

Requested read-out: Kd. Entry: Cc1cc2nc3c(=O)[nH]c(=O)nc-3n(C[C@H](O)[C@H](O)[C@H](O)COP(=O)(O)OP(=O)(O)OC[C@H]3O[C@@H](n4cnc5c(N)ncnc54)[C@H](O)[C@@H]3O)c2cc1C ≥ 30 µM

Cited source for all entries: paper PMC6862323
